- Test system: L1210 leukemia ip in BDF1 mice, survival T/C
- assay: NCI In Vivo Anticancer Drug Screen. Data for tumor model L1210 Leukemia (intraperitoneal) in B6D2F1 (BDF1) mice
- experimental-context: endpoint: mean survival time; dose: 200.0 mg/kg/injection; schedule: Q04DX003 (ip); vehicle: carboxymethylcellulose (CMC); higher = longer survival
Inconclusive results and toxic doses are left out.
Please respond with reported T/C for every item in the list.

compound=CC[N+](CC)(CC)CC(=O)NCc1ccco1 metric_name=T/C recorded_measurement="102 % of control"

# per-item lookup of T/C; items listed below
1. CC(=O)c1ccc(N=Nc2ccc(N(C)C)cc2)cc1
2. O=C1OC(=O)c2ccc(Sc3ccccn3)c3cccc1c23
3. O=C(O)C1C2C=CC(C2)C1(C(=O)O)c1ccccc1 (centres undefined)

101 % of control
88 % of control
92 % of control
